Experiment: recombinant UMI read abundance after kanamycin selection (control-corrected) (log10(CPM+1)); higher = more efficient recombination; extreme values may be limits of the assay; sequences stand for … in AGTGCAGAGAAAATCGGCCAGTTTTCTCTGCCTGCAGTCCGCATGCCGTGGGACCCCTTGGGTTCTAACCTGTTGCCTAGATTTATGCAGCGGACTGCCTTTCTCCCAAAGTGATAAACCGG…AGGTTGGTTTCACT; site = the 11-nt donor
reported endpoint: recombinant UMI read abundance (log10)
Would you mind answering with just the numeric figure?

Consider the worked cases shown below.
# sequence text, recombinant UMI read abundance (log10)
rows = [
    ("AGATAGGCATGGACCGGTTTTCCCGGTAATCCGTATTTGCT (site AGAGAGGCTAG)", 0.862),
    ("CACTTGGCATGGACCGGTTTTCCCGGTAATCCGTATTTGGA (site CACTTAGCTTC)", 1.14),
    ("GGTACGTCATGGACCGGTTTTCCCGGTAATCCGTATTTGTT (site GGTACGTCTAT)", 0),
    ("GGTGCGACATGGACCGGTTTTCCCGGTAATCCGTATTTGTT (site GGTGCGACTAA)", 0.345),
    ("GTAGGCACATGGACCGGTTTTCCCGGTAATCCGTATTTGAC (site GTAGGAACTGT)", 1.1),
]

recombinant UMI read abundance (log10) lookup needed for TCCCACCCATGGACCGGTTTTCCCGGTAATCCGTATTTGAG (site TCCCACCCTCT) , thanks.
0.00907

Request: TCCTAGACATGGACCGGTTTTCCCGGTAATCCGTATTTGGG (site TCCTAGACTCC)
0.00458

And the next one, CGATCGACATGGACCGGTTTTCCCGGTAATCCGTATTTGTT (site CGATCAACTAA) ?
0.0776

// repeat for TAAGAATCATGGACCGGTTTTCCCGGTAATCCGTATTTGCG (site TAAGAATCTCG) and report
2.9

---

Assay: recombinant barcode read abundance after kanamycin selection (control-corrected) (log10(CPM+1)); higher = more efficient recombination; sequences stand for … in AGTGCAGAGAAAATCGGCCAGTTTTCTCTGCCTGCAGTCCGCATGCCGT…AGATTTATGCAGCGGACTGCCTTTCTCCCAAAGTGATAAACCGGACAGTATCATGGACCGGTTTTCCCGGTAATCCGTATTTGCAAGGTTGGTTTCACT; site = the 11-nt target
reported endpoint: recombinant barcode read abundance (log10)

Example sequences with recorded recombinant barcode read abundance (log10):
# sequence text, value
data = [
    ("GTAACTGCTTGGGTTCTAACCTGTTGCCT (site GTAAATGCTAG)", 0.373),
    ("TTCTATCCTTGGGTTCTAACCTGTTGCCT (site TTCTCTCCTAG)", 0.286),
    ("GGTATGTCTTGGGTTCTAACCTGTTGCTG (site CGAATGTCTCA)", 0.119),
]

State the recorded recombinant barcode read abundance (log10) for this entry: GTTTGTCCTTGGGTTCTAACCTGTTGCTT (site GTTTGGCCTAA)
0.644

Ok, now CAGGCGTCTTGGGTTCTAACCTGTTGCCT (site CAGGCGGCTAG)
0.111

---

Test: recombinant UMI read abundance after kanamycin selection (control-corrected) (log10(CPM+1)); higher = more efficient recombination; extreme values may be limits of the assay; sequences stand for … in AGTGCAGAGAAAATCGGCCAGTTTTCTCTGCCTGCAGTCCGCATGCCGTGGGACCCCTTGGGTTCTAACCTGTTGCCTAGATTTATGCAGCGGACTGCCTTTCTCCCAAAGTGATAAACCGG…AGGTTGGTTTCACT; site = the 11-nt donor
Each entry below carries its recorded recombinant UMI read abundance (log10).
Keep the answer to the number alone.

Record request: recombinant UMI read abundance (log10) value, item ACAAGAACATGGACCGGTTTTCCCGGTAATCCGTATTTGTC (site ACAAGAACTGA)
1.75

Same lookup for CGGAATTCATGGACCGGTTTTCCCGGTAATCCGTATTTGCT (site CGGAATCCTAA) , please.
0.00849

Try this sequence too: GGAATGTCATGGACCGGTTTTCCCGGTAATCCGTATTTGTT (site GGAATGTCTAA)
2.44

Moving on to CGGGTGTCATGGACCGGTTTTCCCGGTAATCCGTATTTGTT (site CGGGTGTCTAA)
3.07

Can you check TAGCAGACATGGACCGGTTTTCCCGGTAATCCGTATTTGGT (site TAGCAGACTAC) next?
0.868

How about this sequence: AGCCTTACATGGACCGGTTTTCCCGGTAATCCGTATTTGAC (site AGCCTTGCTGT)
0

Now the sequence CGTGTGGCATGGACCGGTTTTCCCGGTAATCCGTATTTGCT (site CGTGTGGCTAG)
3.26

What do you have for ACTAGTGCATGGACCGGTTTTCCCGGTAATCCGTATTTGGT (site ACTAGTACTAC) ?
0.998

Another sequence to look at: CTCCATACATGGACCGGTTTTCCCGGTAATCCGTATTTGAG (site CTCCTTACTCT)
0.0162

Do the same for GCGAATACATGGACCGGTTTTCCCGGTAATCCGTATTTGCT (site GCGAATACTAG) please
0

For AACCGTCCATGGACCGGTTTTCCCGGTAATCCGTATTTGAA (site AACCGTCCTGT) then?
0

Same thing, different sequence: CCCATCTCATGGACCGGTTTTCCCGGTAATCCGTATTTGGG (site CCCCTCTCTCC)
0.078

Next record, please: AGCCGTCCATGGACCGGTTTTCCCGGTAATCCGTATTTGAT (site ATCCGTCCTAT)
0.0112
